molecular target: DHR-2 domain of DOCK5 (Homo sapiens, UniProt Q9H7D0)
Sequence (Q9H7D0 1231-1642 limits assumed): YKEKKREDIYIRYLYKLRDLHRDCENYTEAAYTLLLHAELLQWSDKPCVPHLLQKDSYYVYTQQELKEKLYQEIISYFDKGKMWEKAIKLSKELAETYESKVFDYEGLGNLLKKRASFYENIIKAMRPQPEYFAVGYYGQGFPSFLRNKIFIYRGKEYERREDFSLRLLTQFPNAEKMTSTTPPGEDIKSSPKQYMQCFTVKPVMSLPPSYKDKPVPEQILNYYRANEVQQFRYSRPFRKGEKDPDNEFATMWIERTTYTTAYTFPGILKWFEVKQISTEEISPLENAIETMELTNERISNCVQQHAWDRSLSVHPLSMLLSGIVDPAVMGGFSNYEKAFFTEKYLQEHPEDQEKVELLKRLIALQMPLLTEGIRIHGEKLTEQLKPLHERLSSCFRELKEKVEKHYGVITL
attribute_measured: IC50

Data request: Identify measured IC50 obtained with DHR-2 domain of DOCK5 (Homo sapiens, UniProt Q9H7D0) for O=C1NN(c2ccccc2)C(=O)C1=CC=Cc1ccccc1Cl [CPYPP, reference compound] .
Data returned: 14.8 µM

###

molecular target: DHR-2 domain of DOCK1 (Homo sapiens)
Sequence (Q14185 1207-1617 limits assumed): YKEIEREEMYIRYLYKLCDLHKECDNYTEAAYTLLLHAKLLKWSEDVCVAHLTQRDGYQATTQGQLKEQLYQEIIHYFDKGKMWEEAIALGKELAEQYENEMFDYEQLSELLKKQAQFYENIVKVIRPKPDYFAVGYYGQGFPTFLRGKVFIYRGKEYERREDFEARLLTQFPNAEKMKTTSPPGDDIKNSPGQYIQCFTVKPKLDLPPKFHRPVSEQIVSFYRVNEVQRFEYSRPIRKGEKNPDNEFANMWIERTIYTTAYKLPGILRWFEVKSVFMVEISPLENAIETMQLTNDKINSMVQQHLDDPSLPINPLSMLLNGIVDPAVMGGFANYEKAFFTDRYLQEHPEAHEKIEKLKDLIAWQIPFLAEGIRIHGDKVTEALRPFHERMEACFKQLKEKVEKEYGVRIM
attribute_measured: IC50 (µM)
Number only, in µM; omit the unit.

Data request: Name the recorded IC50 of the item O=C1NN(c2ccccc2)C(=O)C1=CC=Cc1ccccc1Cl [CPYPP, reference compound] in your answer.
Data returned: 20
